Can you tell me T/C for the items I'm about to list?
system: L1210 leukemia ip in BDF1 mice, survival T/C; experiment: NCI In Vivo Anticancer Drug Screen. Data for tumor model L1210 Leukemia (intraperitoneal) in B6D2F1 (BDF1) mice; conditions: endpoint: mean survival time; dose: 200.0 mg/kg/injection; schedule: Q04DX003 (sc); vehicle: olive oil, sesame oil, peanut oil; higher = longer survival
Toxic doses and inconclusive results are not listed.

IN: // fetch L1210 leukemia ip in BDF1 mice, survival T/C T/C for O=C1C2CCCCC1C(N1CCCC1)CC2 (stereo not given)
OUT: 100 % of control

IN: Next: O=C(OC(=O)c1ccc([N+](=O)[O-])cc1)c1ccc([N+](=O)[O-])cc1
OUT: 98 % of control

IN: Same read-out for CC1CC=C(C2CC(C)CC(N(C)C)C2=N)CC1 (stereo not given) ?
OUT: 103 % of control

IN: Now the compound CC(C)C(=O)c1ccc(Cl)s1
OUT: 107 % of control

IN: Same again, this time with COC(CCC#N)c1ccc(C)cc1 (stereo not given)
OUT: 108 % of control
